Overview of reported ELISA signal value across a group of binders:
Target: T1, IgV domain of B7-H3 (human, UniProt Q5ZPR3 30-130)
T1 sequence: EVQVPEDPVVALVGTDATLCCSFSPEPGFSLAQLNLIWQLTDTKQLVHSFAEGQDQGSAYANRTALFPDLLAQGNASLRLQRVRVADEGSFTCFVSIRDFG
Assay: ELISA on coated antigen, IgG1 antibody
EXPERIMENTAL ENDPOINT: ELISA signal value

binder="P2E5 full-length IgG1 antibody (antibody, V domains shown, also called biotin-P2E5) VH: QVTLKESGGGLVQPGGSLRLSCAASGFTFSNSYMTWVRQAPGMGLEWVASMKPDGSVKHYVDSVKGRFTISRDNTKNSLDLQMNSLRAEDTAVYYCSSYDTRWGWFDPWGEGTLVTVSS VL: QTVVTQEPSFSVSPGGTVTLTCGLNSGSVSTSYFPSWYQQTPGQAPRTLIYNTNTRSSGVPDRFSGSILGNKAALTITGAQADDESDYYCLLYMDSGPHWVFGGGTKLTVL" experimental_endpoint="ELISA signal value" result="0.3 to 0.5 elisasignalvalue"
binder="P3H6 full-length IgG1 antibody (antibody, V domains shown) VH: QVQLVQSGAEVKKPGESLKISCKGSGYSFSNYWIGWVRQMPGKGLEWMGIIYPGDSDTRYSPSFQGQVTISADKSISTAYLQWSSLKASDTAMYYCARSRGYPTNYMDVWGRGTTVTVSS VL: QAVLTQPPSVSGAPRQRVTISCSGSSSNIGNNIVSWYQHLPGKAPRLLIYRERQRPSGVPDRFSGSKSGTSASLAISGLRSEDEADYYCATWDDSLNSWVFGGGTKLTVL" experimental_endpoint="ELISA signal value" result="1.6 to 3 elisasignalvalue"
binder="P7F10 full-length IgG1 antibody (antibody, V domains shown) VH: QVQLQQSGGGLVQPGGSLRLSCAASGFTFSSYPMSWVRQAPGKGLEWVSVISGSGGSTFYADSVKGRFTISRDNSKNTLYLQVNSLRAEDTAVYYCAKDGRTLSGMDVWGQGTTVTVSS VL: QPVLTQPPSASGTPGQRVTISCSGSSSNIGSNPVNWYQQLPGTAPKLLIYNNNQRPSGVPDRFSGSKSGTSGSLAISGLQSEDEAHYYCAAWDVSLKEVFGGGTKVTVL" experimental_endpoint="ELISA signal value" result="0.6 to 1.5 elisasignalvalue"
binder="P9A12 full-length IgG1 antibody (antibody, V domains shown) VH: QVTLKESGGGLVQPGGSLRLSCAASGFTFSSYAMSWVRQAPGKGLEWVSAISGSGGSTYYADSVKGRFTISRDNSKNTLYLQMNSLRAEDTAVYYCARGAGIDAFDIWGQGTMVTVSS VL: QSALTQPASVSGSPGQSITISCTGTSSDVGAYNYVTWYQQYPGKAPKLMIYDVSERPSGVSNRFSGSKSGNTASLTISGLQAEDEADYYCSSFTSSISWVFGGGTKLTVL" experimental_endpoint="ELISA signal value" result="0.3 to 0.5 elisasignalvalue"
binder="P1G2 full-length IgG1 antibody (antibody, V domains shown) VH: QVQLQQSGAEVKKPGSSVKVSCKASGGTFSSYAISWVRQAPGQGLEWMGRIIPILGIANYAQKFQGRVTITADKSTSTAYMELSSLRSEDTAVYYCAVNYYDSSGYYSDYWGQGTLVTVSS VL: SYELTQPPSASGSPGQSVTISCTGTSSDVGGYNYVSWYQQHPGKAPRLMIYGVSQRPSGVPDRFSGSKSGNTASLTVSGLQAEDEADYYCSSYANNNYVFGTGTKVTVL" experimental_endpoint="ELISA signal value" result="0.3 to 0.5 elisasignalvalue"
